Target System: PPARγ (Homo sapiens (Human), UniProt P37231)
Sequence (P37231 29-505): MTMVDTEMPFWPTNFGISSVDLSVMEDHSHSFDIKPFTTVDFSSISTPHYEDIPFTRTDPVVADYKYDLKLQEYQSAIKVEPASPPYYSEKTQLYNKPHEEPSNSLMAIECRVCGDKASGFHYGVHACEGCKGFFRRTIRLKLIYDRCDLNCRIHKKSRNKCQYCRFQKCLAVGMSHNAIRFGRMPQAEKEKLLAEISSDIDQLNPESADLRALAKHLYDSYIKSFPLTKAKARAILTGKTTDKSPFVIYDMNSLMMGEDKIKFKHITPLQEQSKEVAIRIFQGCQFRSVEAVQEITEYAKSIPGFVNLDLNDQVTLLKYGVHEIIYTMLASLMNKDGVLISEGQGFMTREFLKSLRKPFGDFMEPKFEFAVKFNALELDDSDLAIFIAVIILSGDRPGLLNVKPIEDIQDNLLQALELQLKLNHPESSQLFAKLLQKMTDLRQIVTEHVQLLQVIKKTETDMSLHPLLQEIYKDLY
Sequence (P19793 whole entry partner): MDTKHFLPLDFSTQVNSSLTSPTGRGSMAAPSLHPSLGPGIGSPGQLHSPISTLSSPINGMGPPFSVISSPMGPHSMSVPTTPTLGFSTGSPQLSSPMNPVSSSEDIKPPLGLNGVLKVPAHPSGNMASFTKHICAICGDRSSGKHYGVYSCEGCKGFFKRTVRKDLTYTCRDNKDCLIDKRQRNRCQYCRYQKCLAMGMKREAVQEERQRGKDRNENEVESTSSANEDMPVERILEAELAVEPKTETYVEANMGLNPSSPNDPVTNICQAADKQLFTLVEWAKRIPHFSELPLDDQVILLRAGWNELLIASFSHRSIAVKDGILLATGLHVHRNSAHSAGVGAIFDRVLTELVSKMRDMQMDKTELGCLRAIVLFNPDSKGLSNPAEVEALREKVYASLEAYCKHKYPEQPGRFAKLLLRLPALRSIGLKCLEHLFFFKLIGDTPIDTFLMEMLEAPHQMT
Test Method Notes: PPARγ activating action (luciferase reporter in PPARγ:RXRα:4ERPP/CHO-K1 cells)
Format: cell-based
Assay Context: CHO-K1, 24 h; test compound 1 μM; luciferase activity relative to control compound X (1 μM) = 100%, non-administration group = 0%; read-out: PPARγ activating action (activation % (1 μM))
Measured Metric: activation at 1 µM (%)

INSERT INTO assay_data (compound, measured_metric, measure_unit, observed) VALUES
  ('CCc1cc2c(=O)n(CC(=NOC(C)C)c3ccc(OC)cc3)c(=O)n(Cc3ccc(-c4ccccc4-c4noc(=O)[nH]4)cc3)c2s1 [Ex. 213]', 'activation at 1 µM', '%', 49),
  ('CCc1cc2c(=O)n(CCc3ccc(F)cc3)c(=O)n(Cc3ccc(-c4ccccc4-c4noc(=O)[nH]4)cc3)c2s1 [Example 56]', 'activation at 1 µM', '%', 65),
  ('O=C(Cn1c(=O)c2cc(C3CC3)sc2n(Cc2ccc(-c3ccccc3-c3noc(=O)[nH]3)cc2)c1=O)c1ccc(F)cc1 [Ex. 63]', 'activation at 1 µM', '%', 31),
  ('CCc1cc2c(=O)n(CC(=O)c3ccc(OC)cc3F)c(=O)n(Cc3ccc(-c4ccccc4-c4noc(=O)[nH]4)cc3)c2s1 [Ex. 73]', 'activation at 1 µM', '%', 35),
  ('CCc1cc2c(=O)n(CC(=O)C(C)(C)C)c(=O)n(Cc3ccc(-c4ccccc4-c4noc(=O)[nH]4)cc3)c2s1 [Ex. 131]', 'activation at 1 µM', '%', 72),
  ('CCc1cc2c(=O)n(CC(=O)c3ccc(OC)cc3)c(=O)n(Cc3ccc(-c4ccccc4-c4noc(=O)[nH]4)cc3F)c2s1 [Ex. 83]', 'activation at 1 µM', '%', 37);

A: CCc1cc2c(=O)n(CC(=O)c3ccc(OC)cc3)c(=O)n(Cc3ccc(-c4ccc(F)cc4-c4noc(=O)[nH]4)cc3)c2s1 [Ex. 198]
B: Cc1ccc(CCn2c(=O)c3cc(CC(F)(F)F)sc3n(Cc3ccc(-c4ccccc4-c4noc(=O)[nH]4)cc3)c2=O)cc1 [Ex. 59]
QUERY: Select the item with the higher value of activation at 1 µM from the options A and B listed. Write down the label of the entry you select.
RESULT: B
(B: 58%, A: 36%)

A: CCCc1cc2c(=O)n(CC(=O)c3ccc(OC)cc3)c(=O)n(Cc3ccc(-c4ccccc4-c4noc(=O)[nH]4)cc3F)c2s1 [Ex. 158]
B: CCc1cc2c(=O)n(-c3ccc4c(c3)CC(C)(C)O4)c(=O)n(Cc3ccc(-c4ccccc4-c4noc(=O)[nH]4)cc3F)c2s1 [Ex. 181]
QUERY: Record comparison, field activation at 1 µM: mark the lower of A and B . Write down the label of the entry you select.
RESULT: A

---

Target System: AT1 receptor (Homo sapiens (Human))
Sequence (P30556 whole entry): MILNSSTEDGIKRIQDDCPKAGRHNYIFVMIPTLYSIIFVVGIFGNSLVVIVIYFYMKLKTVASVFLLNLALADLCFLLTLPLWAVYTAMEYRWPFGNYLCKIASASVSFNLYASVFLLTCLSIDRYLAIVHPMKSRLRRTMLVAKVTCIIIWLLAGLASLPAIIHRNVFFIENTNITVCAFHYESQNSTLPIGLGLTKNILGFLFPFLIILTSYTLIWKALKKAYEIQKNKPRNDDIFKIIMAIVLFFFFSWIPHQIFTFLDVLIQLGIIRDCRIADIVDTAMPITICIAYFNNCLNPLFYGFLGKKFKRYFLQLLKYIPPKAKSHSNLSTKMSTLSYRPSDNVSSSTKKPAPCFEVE
Test Method Notes: AT1 receptor binding inhibitory action
Where a name gives a salt, the structure may show the parent alone.
Measured Metric: IC50 (nM)

INSERT INTO measurements (molecule, measured_metric, measure_unit, observed) VALUES
  ('COc1ccc(C(=O)Cn2c(=O)c3cc(C4CC4)sc3n(Cc3c(F)cc(-c4ccccc4-c4noc(O)n4)cc3F)c2=O)cc1 [Ex. 135, potassium salt]', 'IC50', 'nM', 1.5),
  ('CCc1cc2c(=O)n(CC(O)c3ccc(OC)cc3)c(=O)n(Cc3ccc(-c4ccccc4-c4noc(=O)[nH]4)cc3F)c2s1 (stereo not drawn)', 'IC50', 'nM', 1.5),
  ('CCc1cc2c(=O)n(CC(=O)c3sccc3Br)c(=O)n(Cc3ccc(-c4ccccc4-c4noc(=O)[nH]4)cc3)c2s1', 'IC50', 'nM', 1.9),
  ('CCc1cc2c(=O)n(CC(=O)c3ccc(Cl)cc3)c(=O)n(Cc3ccc(-c4ccccc4-c4noc(=O)[nH]4)cc3)c2s1', 'IC50', 'nM', 1.7),
  ('CCc1cc2c(=O)n(CC(=O)C(C)(C)COC(C)=O)c(=O)n(Cc3ccc(-c4ccccc4-c4noc(=O)[nH]4)cc3)c2s1', 'IC50', 'nM', 1.5),
  ('CCc1cc2c(=O)n(CC(=O)c3ccccc3OC)c(=O)n(Cc3ccc(-c4ccccc4-c4noc(O)n4)cc3)c2s1 [Ex. 109, potassium salt]', 'IC50', 'nM', 1.4);

---

Target System: AT1 receptor (Homo sapiens (Human))
Test Method Notes: AT1 receptor binding inhibitory action
Measured Metric: IC50 (nM)

INSERT INTO measurements (record_smiles, measure_unit, observed) VALUES
  ('CCc1cc2c(=O)n(CC(=O)c3cccs3)c(=O)n(Cc3ccc(-c4ccccc4-c4noc(=O)[nH]4)cc3)c2s1', 'nM', 1.4);

a: CCc1cc2c(=O)n(CC(=O)c3ccc(OC)cc3F)c(=O)n(Cc3ccc(-c4ccccc4-c4noc(=O)[nH]4)cc3)c2s1
b: CCc1cc2c(=O)n(CC(=O)c3ccc(OC)cc3)c(=O)n(Cc3ccc(-c4ccccc4-c4noc(=O)[nH]4)cc3F)c2s1
QUERY: Select the item with the higher value of IC50 from the options a and b listed. Write down the label of the entry you select.
RESULT: a

---

Target System: PPARγ (Homo sapiens (Human))
Test Method Notes: PPARγ activating action (luciferase reporter in PPARγ:RXRα:4ERPP/CHO-K1 cells)
Type: cell-based
Assay Context: CHO-K1, 24 h; test compound 1 μM; luciferase activity relative to control compound X (1 μM) = 100%, non-administration group = 0%; read-out: PPARγ activating action (activation % (1 μM))
Measured Metric: activation at 1 µM (%)

Answered cases to consult:
INSERT INTO measurements (molecule, observed) VALUES
  ('CC(C)(C)C(=O)Cn1c(=O)c2cc(C3CC3)sc2n(Cc2ccc(-c3ccccc3-c3noc(=O)[nH]3)cc2)c1=O', 52),
  ('CCc1cc2c(=O)n(CC(=O)c3ccc(OC)cc3)c(=O)n(Cc3ccc(-c4cc(F)ccc4-c4noc(=O)[nH]4)cc3)c2s1', 28),
  ('CCO/N=C(/Cn1c(=O)c2cc(CC)sc2n(Cc2ccc(-c3ccccc3-c3noc(=O)[nH]3)cc2)c1=O)c1ccc(OC)cc1', 31),
  ('CCc1cc2c(=O)n(CC(=O)c3ccc(OC)c(F)c3)c(=O)n(Cc3ccc(-c4ccccc4-c4noc(=O)[nH]4)cc3F)c2s1', 35),
  ('CCc1cc2c(=O)n(CC(=O)c3ccc(OC)cc3C)c(=O)n(Cc3ccc(-c4ccccc4-c4noc(=O)[nH]4)cc3)c2s1', 27);

P: CCc1cc2c(=O)n(CC(C)(C)C)c(=O)n(Cc3ccc(-c4ccccc4-c4noc(=O)[nH]4)cc3)c2s1
Q: CCc1cc2c(=O)n(CC(=O)c3sccc3Br)c(=O)n(Cc3ccc(-c4ccccc4-c4noc(=O)[nH]4)cc3)c2s1
QUERY: Record comparison, field activation at 1 µM: mark the lower of P and Q . Write down the label of the entry you select.
RESULT: Q

I: CCc1cc2c(=O)n(CC(=O)C3CCCCC3)c(=O)n(Cc3ccc(-c4ccccc4-c4noc(=O)[nH]4)cc3)c2s1
II: CCc1cc2c(=O)n(CC3(C)COC3)c(=O)n(Cc3ccc(-c4ccccc4-c4noc(=O)[nH]4)cc3)c2s1
III: O=c1[nH]c(-c2ccccc2-c2ccc(Cn3c(=O)n(CCc4ccc(Cl)cc4)c(=O)c4cc(CC(F)(F)F)sc43)cc2)no1
QUERY: Could you please sort these 3 entries by activation at 1 µM from high to low? Response field: labels, in requested order.
RESULT: I, II, III

P: CCc1cc2c(=O)n(CCN3CCOCC3)c(=O)n(Cc3ccc(-c4ccccc4-c4noc(=O)[nH]4)cc3F)c2s1
Q: O=c1[nH]c(-c2ccccc2-c2ccc(Cn3c(=O)n(CCc4cccc(F)c4)c(=O)c4cc(CC(F)(F)F)sc43)cc2)no1
QUERY: Record comparison, field activation at 1 µM: mark the lower of P and Q . Write down the label of the entry you select.
RESULT: Q
(Q: 42%, P: 62%)

I: COc1cc(F)ccc1C(=O)Cn1c(=O)c2cc(C3CC3)sc2n(Cc2ccc(-c3ccccc3-c3noc(=O)[nH]3)cc2)c1=O
II: CCc1cc2c(=O)n(CC(=O)c3ccc(Cl)s3)c(=O)n(Cc3ccc(-c4ccccc4-c4noc(=O)[nH]4)cc3)c2s1
QUERY: Record comparison, field activation at 1 µM: mark the lower of I and II . Write down the label of the entry you select.
RESULT: II

---

Target System: PPARγ (Homo sapiens (Human), UniProt P37231)
Test Method Notes: PPARγ activating action (luciferase reporter in PPARγ:RXRα:4ERPP/CHO-K1 cells)
Format: cell-based
Assay Context: CHO-K1, 24 h; test compound 1 μM; luciferase activity relative to control compound X (1 μM) = 100%, non-administration group = 0%; read-out: PPARγ activating action (activation % (1 μM))
Measured Metric: activation at 1 µM (%)

INSERT INTO results (compound, measure_unit, observed) VALUES
  ('CCc1cc2c(=O)n(CC(=O)C34CC5CC(CC(C5)C3)C4)c(=O)n(Cc3ccc(-c4ccccc4-c4noc(=O)[nH]4)cc3)c2s1 [Ex. 132]', '%', 50),
  ('C=CCON=C(Cn1c(=O)c2cc(CC)sc2n(Cc2ccc(-c3ccccc3-c3noc(=O)[nH]3)cc2)c1=O)c1ccc(OC)cc1 [Ex. 214]', '%', 41),
  ('CCc1cc2c(=O)n(CC(O)C(C)(C)C)c(=O)n(Cc3ccc(-c4ccccc4-c4noc(=O)[nH]4)cc3)c2s1 (stereo not drawn) [Ex. 149]', '%', 50);

// provenance: patent US8501750B2
